// provenance: patent US5916905A

- testedOn: COX-1 (Mus musculus, UniProt P22437)
- Construct: A 2.0 kb fragment containing the coding region
- Sequence (P22437 27-602): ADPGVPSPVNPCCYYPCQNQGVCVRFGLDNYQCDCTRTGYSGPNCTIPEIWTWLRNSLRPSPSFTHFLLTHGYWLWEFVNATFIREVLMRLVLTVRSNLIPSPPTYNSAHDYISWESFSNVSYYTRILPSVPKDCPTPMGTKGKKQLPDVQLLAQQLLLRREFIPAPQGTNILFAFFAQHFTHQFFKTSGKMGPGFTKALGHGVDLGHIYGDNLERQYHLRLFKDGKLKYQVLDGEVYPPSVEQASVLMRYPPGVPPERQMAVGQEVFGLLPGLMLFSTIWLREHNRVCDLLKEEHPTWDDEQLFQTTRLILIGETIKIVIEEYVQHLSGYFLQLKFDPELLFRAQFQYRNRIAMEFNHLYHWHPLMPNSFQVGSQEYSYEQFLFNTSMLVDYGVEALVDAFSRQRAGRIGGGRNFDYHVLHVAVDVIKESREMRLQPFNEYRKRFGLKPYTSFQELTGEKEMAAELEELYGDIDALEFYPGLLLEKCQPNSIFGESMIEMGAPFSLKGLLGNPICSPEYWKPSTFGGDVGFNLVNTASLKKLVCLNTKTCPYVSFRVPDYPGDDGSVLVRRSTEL
- method: COX-1 activity in vitro, recombinant murine enzyme (PGE2 ELISA)
- recordedConditions: murine (m); 10 μM arachidonic acid, 10-20 min pre-incubation; read-out: COX-1 ID50
observable: IC50

Check out these entries, answers already filled in.
CS(=O)(=O)c1ccc(-c2cc(C#N)c(Cl)nc2-c2ccc(F)cc2)cc1 [Example 7] | > 100 µM
CS(=O)(=O)c1ccc(-c2cc(C(N)=O)cnc2-c2ccc(F)cc2)cc1 [Example 21] | > 100 µM
CS(=O)(=O)c1ccc(-c2cc(C#N)cnc2-c2ccc(F)cc2)cc1 [Example 22] | > 10 µM
CS(=O)(=O)c1ccc(-c2cc(C#N)c(-c3ccccc3)nc2-c2ccc(F)cc2)cc1 [Example 4] | > 10 µM
CS(=O)(=O)c1ccc(-c2cc(C#N)c(Br)nc2-c2ccc(F)cc2)cc1 [Example 3] | > 10 µM
COc1nc(-c2ccc(S(C)(=O)=O)cc2)c(-c2ccc(F)cc2)cc1C#N [Example 23] | > 100 µM

State its IC50 for this compound: CS(=O)(=O)c1ccc(-c2cc(C(N)=O)c(Cl)nc2-c2ccc(F)cc2)cc1 [Example 20]
> 100 µM

* * *

- testedOn: COX-2 (Mus musculus)
- Construct: A 2.0 kb fragment containing the coding region
- method: COX-2 activity in vitro, recombinant murine enzyme (PGE2 ELISA)
- recordedConditions: murine (m); 10 μM arachidonic acid, 10-20 min pre-incubation; read-out: COX-2 ID50
observable: IC50 (nM)

CS(=O)(=O)c1ccc(-c2cc(C(N)=O)c(Cl)nc2-c2ccc(F)cc2)cc1 [Example 20] | 26200
COc1nc(-c2ccc(S(C)(=O)=O)cc2)c(-c2ccc(F)cc2)cc1C#N [Example 23] | 300

1. CS(=O)(=O)c1ccc(-c2cc(C(N)=O)cnc2-c2ccc(F)cc2)cc1 [Example 21]
2. CS(=O)(=O)c1ccc(-c2cc(C#N)c(Cl)nc2-c2ccc(F)cc2)cc1 [Example 7]
Record comparison, field IC50: mark the lower of 1 and 2 . Refer to your chosen item by its label in the answer.
2

* * *

- testedOn: COX-2 (Mus musculus, UniProt Q05769)
- Construct: A 2.0 kb fragment containing the coding region
- Sequence (Q05769 18-604): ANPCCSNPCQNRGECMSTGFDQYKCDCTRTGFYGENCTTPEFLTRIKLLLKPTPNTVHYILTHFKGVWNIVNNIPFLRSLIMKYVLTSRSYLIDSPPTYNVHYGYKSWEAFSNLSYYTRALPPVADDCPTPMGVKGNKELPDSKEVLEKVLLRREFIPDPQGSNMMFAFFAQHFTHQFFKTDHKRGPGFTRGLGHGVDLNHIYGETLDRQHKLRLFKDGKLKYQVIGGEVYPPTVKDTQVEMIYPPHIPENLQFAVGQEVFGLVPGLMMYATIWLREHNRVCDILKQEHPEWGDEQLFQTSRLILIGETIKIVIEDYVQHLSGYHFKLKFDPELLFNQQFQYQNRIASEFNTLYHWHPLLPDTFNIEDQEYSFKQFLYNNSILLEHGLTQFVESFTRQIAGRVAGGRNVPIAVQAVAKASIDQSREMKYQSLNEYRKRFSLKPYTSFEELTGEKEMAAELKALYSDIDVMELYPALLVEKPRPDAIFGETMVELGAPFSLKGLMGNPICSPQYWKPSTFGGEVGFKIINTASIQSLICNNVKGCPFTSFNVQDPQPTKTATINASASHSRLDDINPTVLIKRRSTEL
- method: COX-2 activity in vitro, recombinant murine enzyme (PGE2 ELISA)
- recordedConditions: murine (m); 10 μM arachidonic acid, 10-20 min pre-incubation; read-out: COX-2 ID50
observable: IC50

Check out these entries, answers already filled in.
CS(=O)(=O)c1ccc(-c2cc(C#N)c(-c3ccccc3)nc2-c2ccc(F)cc2)cc1 | < 100 nM
CS(=O)(=O)c1ccc(-c2cc(C#N)cnc2-c2ccc(F)cc2)cc1 | 300 nM

Now, please, on to the next molecule.
State its IC50 for this molecule: CS(=O)(=O)c1ccc(-c2cc(C#N)c(Br)nc2-c2ccc(F)cc2)cc1
< 100 nM
